Molecular target: T1, Soluble KDR receptor (UniProt P35968 20-764, limits assumed)
T1 construct: Immobilised by amine coupling, RL 12721
T1 sequence (P35968 20-764 limits assumed): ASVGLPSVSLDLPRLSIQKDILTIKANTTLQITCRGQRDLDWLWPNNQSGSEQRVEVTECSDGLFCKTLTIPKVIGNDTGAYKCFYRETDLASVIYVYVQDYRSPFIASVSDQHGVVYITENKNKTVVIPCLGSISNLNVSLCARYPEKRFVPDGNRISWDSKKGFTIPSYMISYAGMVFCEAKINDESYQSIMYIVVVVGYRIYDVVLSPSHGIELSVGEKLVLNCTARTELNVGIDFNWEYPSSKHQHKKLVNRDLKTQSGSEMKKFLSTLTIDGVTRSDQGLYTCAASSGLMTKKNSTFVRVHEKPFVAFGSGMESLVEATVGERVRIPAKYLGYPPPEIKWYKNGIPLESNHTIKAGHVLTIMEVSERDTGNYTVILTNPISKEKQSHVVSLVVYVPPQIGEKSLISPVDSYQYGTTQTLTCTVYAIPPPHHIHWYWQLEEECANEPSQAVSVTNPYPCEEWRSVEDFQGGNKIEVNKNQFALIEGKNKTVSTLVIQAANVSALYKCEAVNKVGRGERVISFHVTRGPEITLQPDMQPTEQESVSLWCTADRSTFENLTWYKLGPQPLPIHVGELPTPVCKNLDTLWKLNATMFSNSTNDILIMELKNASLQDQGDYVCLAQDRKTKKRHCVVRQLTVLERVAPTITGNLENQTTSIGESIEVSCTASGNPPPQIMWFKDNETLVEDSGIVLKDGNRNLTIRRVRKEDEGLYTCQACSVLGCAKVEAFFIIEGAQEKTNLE
Test: SPR (Biacore 3000), soluble KDR on CM5 chip; apparent KD
Positions of bridges follow the written chain, without caps; N, C: chain ends. Chains are numbered I, II in the order given.
Measured Property: Kd (nM)

- Binder: "Tail-to-tail dimer of P9 and P10 (bridge I:25-II:25; not fully specified (bridges); printed as Ac-AQEPEGYAYWEVITLYHEEDGDGGK(Ac-AQAFPRFGGDDYWIQQYLRYTDGGK(—(O═)C(CH2CH2O)4CH2CH2NHC(═O)CH2CH2C(CH3)═NOCH2C(═O)NH(CH2CH2O)4CH2CH2C(═O)—)NH2)NH2; also: tail-to-tail dimer of two peptides joined through the Lys25 side chains, also called T-T dimer; D31) peptide 1: Ac-AQEPEGYAYWEVITLYHEEDGDGGK-NH2 peptide 2: Ac-AQAFPRFGGDDYWIQQYLRYTDGGK-NH2"
  Unit Label: "nM"
  Reported Result: 11.1
- Binder: "Head-to-head dimer of P9 and P10 (not fully specified; N-terminal amino group carries an NH-PEG4-CO linker and amino-oxyacetyl group, oxime-linked to the other chain; N-terminal amino group carries an NH-PEG4-CO linker and levulinyl group, oxime-linked to the other chain, also called H-H dimer) peptide 1: AQEPEGYAYWEVITLYHEEDGDGG peptide 2: AQAFPRFGGDDYWIQQYLRYTDGG"
  Unit Label: "nM"
  Reported Result: 2.24
